Reported pIC50 values are given for each entry in this list.
target: human c-MER catalytic domain (Homo sapiens (Human), UniProt Q12866); assay: LanthaScreen TR-FRET kinase assay, c-MER; settings: read-out: Mer TK inhibition (IC50); Biochemical IC50, TR-FRET, 10 uM ATP
Sequence (Q12866 587-858): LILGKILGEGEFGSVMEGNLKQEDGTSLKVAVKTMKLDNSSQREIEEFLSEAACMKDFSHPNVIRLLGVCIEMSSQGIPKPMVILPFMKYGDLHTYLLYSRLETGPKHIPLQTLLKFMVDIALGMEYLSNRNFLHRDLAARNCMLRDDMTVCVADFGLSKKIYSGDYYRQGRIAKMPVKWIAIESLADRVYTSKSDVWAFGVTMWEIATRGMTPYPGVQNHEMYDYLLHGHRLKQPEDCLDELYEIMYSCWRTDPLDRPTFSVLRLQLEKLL
pIC50: −log10 of the molar value.

Recorded results for 6 compounds are shown here.
> print(dat)
                                   compound                           target.of.assay  property.measured  obs.value
1  COC(=O)[C@H](COCc1ccccc1)NC(=O)c1cc(-c2cnn(C)c2)cnc1N  human c-MER catalytic domain (Homo sapiens (Human), UniProt Q12866)              pIC50     < 6.00
2  C[C@H](NC(=O)c1cc(-c2cnn(C)c2)cnc1N)C(=O)OCc1ccccc1  human c-MER catalytic domain (Homo sapiens (Human), UniProt Q12866)              pIC50     < 6.00
3  CCc1cc(CO[C@H]2CNC[C@@H]2NC(=O)c2cc(-c3ccccc3)cnc2N)ccc1C  human c-MER catalytic domain (Homo sapiens (Human), UniProt Q12866)              pIC50     > 8.00
4  CC(C)[C@H](COCc1ccccc1)NC(=O)c1cc(-c2cnn(C)c2)cnc1N  human c-MER catalytic domain (Homo sapiens (Human), UniProt Q12866)              pIC50     < 6.00
5  Cn1cc(-c2cnc(N)c(C(=O)N[C@H]3CCC[C@@H]3OCc3ccc(-c4ccc(CC5CCN(CCO)CC5)cc4)cc3)c2)cn1  human c-MER catalytic domain (Homo sapiens (Human), UniProt Q12866)              pIC50     > 8.00
6  CN1CCN(Cc2ccc(-c3ccc(CO[C@H]4CCC[C@@H]4NC(=O)c4cc(-c5cccnc5)cnc4N)cc3)cc2)CC1  human c-MER catalytic domain (Homo sapiens (Human), UniProt Q12866)              pIC50     > 8.00

# input Please give the documented pIC50 of `Cn1cc(-c2cnc(N)c(C(=O)N[C@H]3CNC[C@@H]3OCc3ccc(-c4ccc(C(C)(C)N5CCN(CCO)CC5)cc4)cc3)c2)cn1`
# output > 8.00

# input Please give the documented pIC50 of `Cc1ccc(CO[C@H]2CCC[C@@H]2NC(=O)c2cc(-c3ccc(CNCC4CCN(C)CC4)cc3)cnc2N)cc1C`
# output > 8.00

# input Please give the documented pIC50 of `CN1CCN(Cc2ccc(-c3ccc(CO[C@H]4CCC[C@@H]4NC(=O)c4cc(-c5cnn(C6CCOCC6)c5)cnc4N)cc3)cc2)CC1`
# output > 8.00

# input Please give the documented pIC50 of `C[C@@H](OCc1ccccc1)[C@H](NC(=O)c1cc(-c2cnn(C)c2)cnc1N)C(=O)N1CCCC1`
# output < 6.00

# input Please give the documented pIC50 of `Cc1ccc(CO[C@H]2CCC[C@@H]2NC(=O)c2cc(-c3ccc(C(=O)NC4CCN(C)CC4)cc3)cnc2N)cc1C`
# output > 8.00

# input Please give the documented pIC50 of `C[C@@H](CNC(=O)c1cc(-c2cnn(C)c2)cnc1N)OCc1ccccc1`
# output < 6.00

# input Please give the documented pIC50 of `CCc1cc(CO[C@H]2CNC[C@@H]2NC(=O)c2cc(-c3ccc(CC#N)cc3)cnc2N)ccc1C`
# output > 8.00

# input Please give the documented pIC50 of `CN1C[C@H](NC(=O)c2cc(-c3cnn(C)c3)cnc2N)[C@@H](OCc2ccc(-c3ccc(CN4CCN(CCO)CC4)cc3)cc2)C1`
# output > 8.00

# input Please give the documented pIC50 of `C[C@@H]1CN(C)[C@@H](C)CN1Cc1ccc(-c2ccc(CO[C@H]3CCC[C@@H]3NC(=O)c3cc(-c4cnn(C)c4)cnc3N)cc2)cc1`
# output > 8.00

# input Please give the documented pIC50 of `CN1CCN(Cc2ccc(-c3ccc(CO[C@H]4COC[C@@H]4NC(=O)c4cc(-c5cnn(C)c5)cnc4N)cc3)cc2)CC1`
# output > 8.00

# input Please give the documented pIC50 of `CN1CCN(Cc2ccc(-c3ccc(CO[C@H]4CCC[C@@H]4NC(=O)c4cc(-c5cnn(C)c5)cnc4N)c(F)c3)cc2)CC1`
# output > 8.00

###

Reported IC50 values are given for each entry in this list.
biological target: human c-MER catalytic domain (Homo sapiens (Human), UniProt Q12866); experiment: LanthaScreen TR-FRET kinase assay, c-MER; conditions: read-out: Mer TK inhibition (IC50); Biochemical IC50, TR-FRET, 10 uM ATP

Recorded results for 10 compounds are shown here.
COMPOUND	TARGET OF ASSAY	OBS VALUE
CC(c1ccc(-c2ccc(CO[C@H]3CNC[C@@H]3NC(=O)c3cc(-c4cnn(C)c4)cnc3N)cc2)cc1)N1CCN(C)CC1 (some centres unmarked) [Example 438]	human c-MER catalytic domain (Homo sapiens (Human), UniProt Q12866)	< 0.01 µM
CN1CCN(Cc2ccc(-c3ccc(CO[C@H]4CCC[C@@H]4NC(=O)c4cc(-c5cnn(C)c5)cnc4N)cc3)cc2O)CC1 [Example 199]	human c-MER catalytic domain (Homo sapiens (Human), UniProt Q12866)	< 0.01 µM
C[C@@H]1CN(Cc2ccc(-c3ccc(CO[C@H]4CCC[C@@H]4NC(=O)c4cc(-c5cnn(C)c5)cnc4N)cc3)cc2)CCN1 [Example 185]	human c-MER catalytic domain (Homo sapiens (Human), UniProt Q12866)	< 0.01 µM
Cn1cc(-c2cnc(N)c(C(=O)N[C@H]3CCC[C@@H]3OCc3ccc(-c4ccc(CC5CCN(CC(N)=O)CC5)cc4)cc3)c2)cn1 [Example 242]	human c-MER catalytic domain (Homo sapiens (Human), UniProt Q12866)	< 0.01 µM
Cn1cc(-c2cnc(N)c(C(=O)N[C@H]3CCC[C@@H]3OCc3ccc(-c4ccc(C5(N6CCN(CCO)CC6)CC5)cc4)cc3)c2)cn1 [Example 220]	human c-MER catalytic domain (Homo sapiens (Human), UniProt Q12866)	< 0.01 µM
Cn1cc(-c2cnc(N)c(C(=O)N[C@H]3CCCc4ccccc43)n2)cn1 [Example 131]	human c-MER catalytic domain (Homo sapiens (Human), UniProt Q12866)	> 1 µM
CC(c1ccc(-c2ccc(CO[C@H]3CN(C)C[C@@H]3NC(=O)c3cc(-c4cnn(C)c4)cnc3N)cc2)cc1)N1CCN(CCO)CC1 (some centres unmarked) [Example 443]	human c-MER catalytic domain (Homo sapiens (Human), UniProt Q12866)	< 0.01 µM
CN1CCN(Cc2ccc(-c3ccc(CO[C@H]4CCC[C@@H]4NC(=O)c4cc(-c5ccccc5)cnc4N)cc3)cc2)CC1 [Example 371]	human c-MER catalytic domain (Homo sapiens (Human), UniProt Q12866)	< 0.01 µM
COC(=O)c1cccc(CO[C@H]2CCC[C@@H]2NC(=O)c2cc(-c3cnn(C)c3)cnc2N)c1 [Example 42]	human c-MER catalytic domain (Homo sapiens (Human), UniProt Q12866)	> 1 µM
CN1CCN(Cc2ccc(-c3ccc(CO[C@H]4CCC[C@@H]4NC(=O)c4cc(-c5ccc(CO)cc5)cnc4N)cc3)cc2)CC1 [Example 369]	human c-MER catalytic domain (Homo sapiens (Human), UniProt Q12866)	< 0.01 µM

# input For human c-MER catalytic domain (Homo sapiens (Human), UniProt Q12866), give the measured IC50 of the entry CN1CCN(Cc2ccc(-c3ccc(CO[C@H]4COCC4NC(=O)c4cc(-c5cnn(C)c5)cnc4N)cc3)cc2)CC1 (some centres unmarked) [Example 454]
# output < 0.01 µM

# input For human c-MER catalytic domain (Homo sapiens (Human), UniProt Q12866), give the measured IC50 of the entry CN(C)c1ccc(-c2ccc(CO[C@H]3CCC[C@@H]3NC(=O)c3cc(-c4cnn(C)c4)cnc3N)cc2)cc1 [Example 137]
# output < 0.01 µM

###

target: human c-MER catalytic domain (Homo sapiens (Human)); experiment: LanthaScreen TR-FRET kinase assay, c-MER; conditions: read-out: Mer TK inhibition (IC50); Biochemical IC50, TR-FRET, 10 uM ATP
PROPERTY MEASURED: IC50

Recorded results for 5 compounds are shown here.
> print(dat)
                              smiles.record  property.measured  obs.value
1  Cc1ccc(CO[C@H]2CCC[C@@H]2NC(=O)c2cc(-c3ccc(CN4CCC(O)CC4)cc3)cnc2N)cc1C               IC50    < 10 nM
2  CN1CCN(C(C)(C)c2ccc(-c3ccc(CO[C@H]4CCC[C@@H]4NC(=O)c4cc(-c5ccc(F)nc5)cnc4N)cc3)cc2)CC1               IC50    < 10 nM
3  COC(=O)CN1CCC(Cc2ccc(-c3ccc(CO[C@H]4CCC[C@@H]4NC(=O)c4cc(-c5cnn(C)c5)cnc4N)cc3)cc2)CC1               IC50    < 10 nM
4  C[C@@H](OCc1ccccc1)[C@H](NC(=O)c1cc(-c2cnn(C)c2)cnc1N)C(=O)NC1CCCC1               IC50  > 1000 nM
5  COC(=O)[C@@H](NC(=O)c1cc(-c2cnn(C)c2)cnc1N)[C@@H](C)OCc1ccccc1               IC50  > 1000 nM

# input Please give the documented IC50 of `CCN1CCN(Cc2ccc(-c3ccc(CO[C@H]4CCC[C@@H]4NC(=O)c4cc(-c5cnn(C)c5)cnc4N)cc3)cc2)CC1`
# output < 10 nM

# input Please give the documented IC50 of `COc1cccc(COC[C@@H](C)NC(=O)c2cc(-c3cnn(C)c3)cnc2N)c1`
# output > 1000 nM
